Value source: PubChem BioAssay (NCI)

- Tested on: SW-620 colon
- EXPERIMENTAL DETAILS: NCI-60 one-dose screen, 48 h
- ASSAY SETUP: 10 µM unless noted
About 83,000 compounds went through this panel and 20% of them were active in at least one assay; those are over-represented in the sample as a whole. Activity calls are given as the source filed them. The calls were made as follows: active = growth percent below 10; inactive = the rest.
Give your call using only these classes: T for active, F for inactive

Asked: Could you kindly confirm the outcome this assay logged for CC(=O)N1N=C(c2cccc(Nc3ccncc3)c2)CC1c1ccccc1 (configuration not stated) ?
Given back: F

Asked: Another molecule to look at: `NC(=O)C1(N2CCCCC2)CCN(CCCC(=O)c2ccc(F)cc2)CC1`
Given back: F

Asked: Please do the same for `CCc1c(Nc2ccc(C)cc2)nc(N)[nH]c1=O` as well.
Given back: F

Asked: Record: `CSc1nc(O)c(-c2ccccc2)c(=O)[nH]1`
Given back: F

Asked: And the next one, `Nc1cc(N)c2cccnc2c1O` ?
Given back: F

Asked: Follow-up entry: `CCOc1ccc(/C=N/Nc2cc(C)nc3ccc(Cl)cc23)cc1`
Given back: T

Asked: Please give the result for `COc1ccc2c(c1)c(CC(=O)NCCOCCOCC(=O)Nc1ccc(OC)c(C(N)=O)c1O)c(C)n2C(=O)c1ccc(Cl)cc1` too.
Given back: F

Asked: Another molecule to look at: `COc1cc(C(=O)c2cnc(-c3ccc4cc[nH]c4c3)[nH]2)cc(OC)c1OC`
Given back: F

Asked: Request: `COc1ccc(/C=C(/c2ccccc2)[N+](=O)[O-])cc1`
Given back: T

Asked: Entry to check: `COc1ccncc1C#Cc1cncc(C(=O)Nc2ccc(CN3CCN(C)CC3)c(C(F)(F)F)c2)c1`
Given back: T

Asked: And for `COc1ccc(NC(=O)c2sc3nc(C)c(C(=O)CCc4cccc(OC)c4)cc3c2N)cc1` ?
Given back: F

Asked: Consider next the molecule `CC(=O)Nc1ccc(S(=O)(=O)NC2CCCCC2)cc1` in the same way.
Given back: F

Asked: What about this molecule? COc1ccc(C2CC(n3nnnc3-c3ccccc3)=NN2)cc1 (configuration not stated)
Given back: F

Asked: Here is the next molecule: NS(=O)(=O)c1cccc(NC(=O)C(=O)C2C(=O)Nc3ccccc32)c1 (configuration not stated)
Given back: F

Asked: Same lookup for `CC1(C)CCCN1CCCN1c2ccccc2Sc2ccc(Cl)cc21` , please.
Given back: F

Asked: And `Cn1c(COC(=O)NCCN2CCOCC2)nc2c(N3CCOCC3)nc(-c3ccccc3)nc21` ?
Given back: T

Asked: Try `COc1cc(/C=C2\C(=O)N(Cc3ccc(Cl)cc3)c3ccccc32)cc(OC)c1OC` next.
Given back: T

Asked: Entry `NC(=O)c1cccc(-c2cc(C(N)=O)ccc2Cl)c1` please
Given back: F

Asked: Follow-up entry: `Cc1c2c(cc[n+]1Cc1ccccc1)c1ccc(OCC3CCCCC3)cc1n2CC1CCCCC1`
Given back: T

Asked: Next molecule up: `COc1cc(NCCCN(CC(C)C)CC(C)C)c2ncccc2c1`
Given back: F

Asked: Also, CC(C)C1C2=C(NCCN1C(=O)Cc1ccccc1)C(C)(C)N(Cc1ccccc1)C2=O (configuration not stated) please.
Given back: F

Asked: Try this molecule too: COC(=O)C(c1ccccc1)C(CC(=O)c1ccccc1)c1ccccc1 (configuration not stated)
Given back: F

====

- System: MOLT-4 leukemia
- EXPERIMENTAL DETAILS: NCI-60 one-dose screen, 48 h (100 = growth as untreated, 0 = no growth, -100 = all killed)
- ASSAY SETUP: 10 µM unless noted
This is part of a sample that, as a whole, favours compounds with a hit. Of some 83,000 tested, about 20% had one in any assay.
Note to self: values exactly at 20% are 1. So growth at or above 20% is 1, below is 0.

Asked: Decide: growth of `CC(C)(C)OC(=O)N1C/C(=C\c2ccoc2)C(=O)/C(=C/c2ccoc2)C1` >= 20%?
Given back: 1

Asked: Next record, please: `COc1cc(NCCCN(CC(C)C)C2CCCC2)c2ncccc2c1`
Given back: 1

Asked: Entry to check: `O=S(=O)(NCCNc1nccc(-c2c(-c3ccc(F)c(O)c3)nc3sccn23)n1)c1ccccc1`
Given back: 1

Asked: Also `O=[N+]([O-])c1cccc(-c2nc(-c3ccc(Cl)cc3Cl)cn2-c2ccccc2)c1` ?
Given back: 1

Asked: Another molecule to check: `CCOC(=O)c1c(C)nc2c(c1N)C(=O)C(=O)N2Cc1ccc(C(F)(F)F)cc1`
Given back: 1

Asked: And CCn1cc(C2NC(=O)c3ccccc3N2)c2cccc(C)c21 (stereo unspecified) ?
Given back: 0

Asked: Same question for Clc1cc(Cl)cc(N2N=C(c3cccc(Nc4ccncc4)c3)CC2c2ccc(Br)cc2)c1 (stereo unspecified) please.
Given back: 0

Asked: Could you do the same for `O=C(Nc1cccc(Cl)c1)c1cc(Cl)ccc1O` , please?
Given back: 0

Asked: How about Brc1ccc(C2CC(c3cccc(Nc4ccncc4)c3)=NN2c2ccccc2)cc1 (stereo unspecified) ?
Given back: 1

Asked: Also need `CCCCCCCCCCN=C(N)N=C(N)N` , thanks.
Given back: 1

Asked: Request: CCN1C(=O)N(CC)C2C1NN=c1s/c(=C3\C(=O)Nc4ccccc43)c(=O)n12 (stereo unspecified)
Given back: 1

Asked: Now give it for `COc1ccc(/C=C\c2nc3ccccc3s2)cc1OP(=O)(O)O` too.
Given back: 1

Asked: Can you handle `CCOC(=O)N1CCc2c(sc3nc4nc[nH]n4c(=O)c23)C1` next?
Given back: 1

Asked: Ok, now `CCSc1ccc2c(c1)N(CCCN1CCN(C)CC1)c1ccccc1S2`
Given back: 0

Asked: Cool, now `CCOC(=O)c1ccc(Nc2ccnc(SCC(=O)c3ccc(C#N)cc3)n2)cc1`
Given back: 0

Asked: And what about the molecule `NC(=S)N/N=C(/c1ccccc1)c1ccccc1N` ?
Given back: 1

Asked: Same for CC(=O)OCC(=O)C1(O)C(C)CC2C3C=C(C)C4=Cc5c(cnn5-c5ccccc5)CC4(C)C3C(O)CC21C (stereo unspecified)
Given back: 0

Asked: Lookup `C=C(C)[C@H]1CC/C(C)=C/CC[C@]2(C)O[C@H]2CC/C(COC(=O)[C@@H](OC(C)=O)[C@H](NC(=O)c2ccccc2)c2ccccc2)=C\[C@@H]1O`
Given back: 1

Asked: Next up: `CCCOc1nc(SCCC)nc2c1cnn2-c1ccccc1`
Given back: 1

Asked: Now give it for CC1=CC2(C)/C=C(C)/C=C\CC(O)/C=C3/C=CC(=C4C(=O)OC2(CC1C)C4=O)OC3 (stereo unspecified) too.
Given back: 0

Asked: Next molecule: `COc1ccc(C(=O)/C=C/c2c(OC)cc(OC)cc2OC)c(OC)c1`
Given back: 1

====

- Tested on: DU-145 prostate
- EXPERIMENTAL DETAILS: NCI-60 one-dose screen, 48 h (100 = growth as untreated, 0 = no growth, -100 = all killed)
- ASSAY SETUP: 10 µM unless noted
Compounds without any hit were thinned out: in the full panel of roughly 83,000, 20% have a hit.
Field: growth. Provide a value for each of the compounds that follow.
Report only the number, with the unit % understood.

Asked: Would you kindly share the measured growth for CCCCCCCCCCCC(=O)C(CCCCCCCCCC)C(=O)Nc1ccccc1 (centres undefined) ?
Given back: 104

Asked: Likewise for `O=C(Nc1ccc2ncnc(Nc3ccc(Oc4cccc(F)c4)c(Cl)c3)c2c1)c1ccc(CNCCO)cc1` ?
Given back: 7.74

Asked: Also `C=C1C(=O)O[C@H]2[C@H]1CC/C(COC(=O)CCCCCC(=O)OC/C1=C/CC[C@@]3(C)O[C@H]3[C@H]3OC(=O)C(=C)[C@@H]3CC1)=C\CC[C@@]1(C)O[C@@H]21` , if possible.
Given back: 22.4

Asked: Follow-up item: `Cc1ccc(-c2csc(/N=C3\C(=O)Nc4ccccc43)n2)cc1`
Given back: 42.2

Asked: Here is the next compound: `Clc1nc(Cl)c2ncn(CC3(Cn4cnc5c(Cl)nc(Cl)nc54)COC3)c2n1`
Given back: -100

Asked: Try this compound next: `O=S(=O)(c1ccccc1)N1CCCc2ccccc21`
Given back: 112

Asked: // repeat for `Cn1c(COC(=O)NCCN2CCOCC2)nc2c(N3CCOCC3)nc(-c3ccccc3)nc21` and report
Given back: -81.6

Asked: Another: `CC(=O)O[C@H]1CC[C@@]2(C)[C@@H](CC[C@@H]3[C@@H]2CC[C@@]2(C)[C@H]3CC[C@]2(O)C(C)=O)C1`
Given back: 115

Asked: Ok, now `[O-][n+]1ccccc1CCN(O)CCc1cccc[n+]1[O-]`
Given back: 111

====

- System: K-562 leukemia
- EXPERIMENTAL DETAILS: NCI-60 one-dose screen, 48 h
- ASSAY SETUP: 10 µM unless noted
About 83,000 compounds went through this panel and 20% of them were active in at least one assay; those are over-represented in the sample as a whole. The source made the active and inactive calls. Rule for the calls: active = growth percent below 10; inactive = the rest.
Select the correct class. Options are active, inactive and nothing else.

Asked: Outcome? `O=C1c2ccccc2C(=O)c2c(NCCN=Cc3ccccc3O)cccc21`
Given back: inactive

Asked: Moving on to COc1ccccc1C(C[N+](=O)[O-])c1c(-c2ccccc2)[nH]c2cc(C)ccc12 (configuration not stated)
Given back: active

Asked: // same read-out, input: `CN1CCN(c2ccc3nc(-c4cc(C(C)(C)C)c(O)c(C(C)(C)C)c4)[nH]c3c2)CC1`
Given back: active

Asked: And for N#CSCC1CC(O)(c2ccccc2)C(c2ccccc2)C(c2ccc(F)cc2)O1 (configuration not stated) ?
Given back: inactive

Asked: // next record COc1cc(OC)cc(C2C3=C(COC3=O)Nc3cc(OC)ccc32)c1 (configuration not stated)
Given back: inactive

Asked: // next record CC(=O)N1N=C(c2cccc(Nc3ccncc3)c2)CC1c1ccc2c(c1)OCO2 (configuration not stated)
Given back: inactive

Asked: Same thing, different compound: `CN(C)Cc1c(-c2ccccc2)[nH]c2ccccc12`
Given back: inactive

Asked: Here is the next compound: CN(Cc1ccccc1)c1nc(Cl)c(C2CC(c3ccc(Cl)cc3)=Cc3[nH][nH]c(=O)c32)s1 (configuration not stated)
Given back: inactive

Asked: Param item: `COc1ccc2nc(N=Nc3c(O)ccc4ccccc34)sc2c1`
Given back: inactive

Asked: Check `C=C(C)[C@@H]1CC[C@]2(C(=O)O)CC[C@]3(C)[C@H](CC[C@@H]4[C@@]5(C)C[C@@H](CC#Cc6ccc(Br)cc6)C(=O)C(C)(C)[C@@H]5CC[C@]43C)[C@@H]12` too.
Given back: inactive

Asked: Please give the result for Clc1ccc(N2N=C(c3cccc(Nc4ccncc4)c3)CC2c2ccc(Br)cc2)cc1 (configuration not stated) too.
Given back: active

Asked: Now this one: `O=C(N/N=C/c1ccc(F)cc1)c1ccccc1Nc1cccc(C(F)(F)F)c1`
Given back: inactive

Asked: Next: Clc1cc(Cl)cc(N2N=C(c3cccc(Nc4ccncc4)c3)CC2c2ccc3c(c2)OCO3)c1 (configuration not stated)
Given back: active

Asked: Now consider `COc1cc(/C=C/C(=O)c2c(C)oc3nc[nH]c(=O)c23)ccc1O` and answer again.
Given back: inactive

Asked: Next compound: `CC(C)CN(C(=O)c1ccc(Cl)cc1)c1c(N)n(CC(C)C)c(=O)[nH]c1=O`
Given back: inactive

Asked: Next compound up: `O=C1c2ccccc2-c2c1c1c(NCCCO)nc3ccccc3c1n2Cc1ccccc1`
Given back: inactive

Asked: How about this compound: `c1ccc(Cn2nc3c(c2-c2ccccc2)-c2oncc2CC3)cc1`
Given back: inactive
